This listing pairs compounds with measured thermal shift delta Tm.
# Tested on: LOC_OS05G30820-cb001;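 further: purified Escherichia coli-expressed rice kinase domain construct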
# assay_remarks: thermal shift delta Tm vs DMSO control; higher = stronger stabilization (binding)
# applied_conditions: 12.5 µM; protein concentration 2 µM
measured_quantity: thermal shift delta Tm (°C)

compound	measured_target	measured_quantity	unit_annotation	reported_value
C=CC(=O)N[C@H]1CCOC[C@H]1Nc1ncc2cc(-c3c(Cl)c(OC)cc(OC)c3Cl)ccc2n1	LOC_OS05G30820-cb001	thermal shift delta Tm	°C	0
Cn1c(=O)c(Oc2ccc(F)cc2F)cc2cnc(NC(CCO)CCO)nc21	LOC_OS05G30820-cb001	thermal shift delta Tm	°C	0.63
N#Cc1c(O)c2c(-c3ccc(-c4ccccc4O)cc3)csc2[nH]c1=O	LOC_OS05G30820-cb001	thermal shift delta Tm	°C	0.78
N#Cc1c(Oc2ccc(F)c(NC(=O)Cc3cccc(C(F)(F)F)c3)c2)ccc2nc(NC(=O)C3CC3)sc12	LOC_OS05G30820-cb001	thermal shift delta Tm	°C	0.49
COc1ccc(-c2nc(N3CCOCC3)c3sc(CN(C)c4ncc(C(=O)NO)cn4)cc3n2)cn1	LOC_OS05G30820-cb001	thermal shift delta Tm	°C	0.56
OC1CCC(Oc2cccc3cnc(Nc4ccc5nc[nH]c5c4)nc23)CC1 (configuration not stated)	LOC_OS05G30820-cb001	thermal shift delta Tm	°C	2.88
Cc1ccc(NC(=O)c2cccc(N(C)C)c2)cc1NC(=O)c1ccc(O)cc1	LOC_OS05G30820-cb001	thermal shift delta Tm	°C	0.58
CN1CCN(c2ccc(-c3ccncc3-c3cc(F)c(O)c(F)c3)cc2)CC1	LOC_OS05G30820-cb001	thermal shift delta Tm	°C	0.41
FC(F)(F)c1ccc(Nc2nc3ccc(Oc4ccnc(-c5ncc(C(F)(F)F)[nH]5)c4)cc3[nH]2)cc1	LOC_OS05G30820-cb001	thermal shift delta Tm	°C	0.29
Cc1cc(Nc2cc(N3CCN(C)CC3)nc(/C=C/c3ccccc3)n2)n[nH]1	LOC_OS05G30820-cb001	thermal shift delta Tm	°C	1.8
NC1(c2ccc(-c3nc4ccn5c(=O)[nH]nc5c4cc3-c3ccccc3)cc2)CCC1	LOC_OS05G30820-cb001	thermal shift delta Tm	°C	0.4
CC(C)(C)NC(=O)c1cncn1C1CCN(c2ccc(-c3nnc(C(F)(F)F)o3)cn2)CC1	LOC_OS05G30820-cb001	thermal shift delta Tm	°C	0.02
CCc1cncnc1N1CCN(Cc2nc3ccc(C(F)(F)F)cc3[nH]2)CC1	LOC_OS05G30820-cb001	thermal shift delta Tm	°C	0.66
CC(C)(C)c1ccc(S(=O)(=O)/C=C/C#N)cc1	LOC_OS05G30820-cb001	thermal shift delta Tm	°C	-0.04
O=C(NOC[C@H](O)CO)c1ccc(F)c(F)c1Nc1ccc(I)cc1F	LOC_OS05G30820-cb001	thermal shift delta Tm	°C	0.37
CO[C@H]1C[C@@H]2CC[C@@H](C)[C@@](O)(O2)C(=O)C(=O)N2CCCC[C@H]2C(=O)O[C@H]([C@H](C)C[C@@H]2CC[C@@H](OC(=O)C(C)(CO)CO)[C@H](OC)C2)CC(=O)[C@H](C)/C=C(\C)[C@@H](O)[C@@H](OC)C(=O)[C@H](C)C[C@H](C)/C=C/C=C/C=C/1C	LOC_OS05G30820-cb001	thermal shift delta Tm	°C	0.38
CC(C)(C)c1cc(NC(=O)Nc2ccc(-c3cn4c(n3)sc3cc(OCCN5CCOCC5)ccc34)cc2)no1	LOC_OS05G30820-cb001	thermal shift delta Tm	°C	0.82

Data origin, for the record: the supplement of paper PMC9694430
